These entries and their values trace back to patent US11236106B2.

Target: menin and MLL (menin, Flag tagged; biotinylated MLL1 peptide 1-46aa) (Homo sapiens, UniProt O00255)
Sequence (O00255 1-610): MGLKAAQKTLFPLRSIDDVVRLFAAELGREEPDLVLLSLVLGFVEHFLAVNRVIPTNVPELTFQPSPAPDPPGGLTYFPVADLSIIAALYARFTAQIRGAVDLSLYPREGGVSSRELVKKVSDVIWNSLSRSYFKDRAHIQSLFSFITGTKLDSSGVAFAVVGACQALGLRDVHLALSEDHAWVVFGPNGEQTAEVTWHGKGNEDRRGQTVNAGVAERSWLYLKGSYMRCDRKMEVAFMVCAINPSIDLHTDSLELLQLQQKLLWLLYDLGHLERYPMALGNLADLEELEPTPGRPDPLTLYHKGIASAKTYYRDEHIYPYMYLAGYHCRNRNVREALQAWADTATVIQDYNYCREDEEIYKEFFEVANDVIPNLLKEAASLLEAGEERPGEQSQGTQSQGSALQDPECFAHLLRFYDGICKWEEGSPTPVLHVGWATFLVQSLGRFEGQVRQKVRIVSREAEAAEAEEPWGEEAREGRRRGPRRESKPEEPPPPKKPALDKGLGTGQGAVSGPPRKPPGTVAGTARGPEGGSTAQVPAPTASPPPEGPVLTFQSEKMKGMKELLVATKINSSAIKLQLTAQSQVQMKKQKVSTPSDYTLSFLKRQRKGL
Assay: biochemical
Details: IC50, binding inhibitory activity between menin and MLL, AlphaLISA; 1 nM menin, 10 nM biotinylated MLL1 peptide
Counter-ions that a name gives are not always drawn.
Reported property: pIC50
The scale used: pIC50 is minus the common logarithm of the concentration in molar units.

Item COc1nc(N(C)[C@H]2C[C@@H](NCc3cccc(Nc4cccnc4)c3)C[C@H]2O)c2cc(CC(F)(F)F)sc2n1 [Example 120, hydrochloride] has what recorded pIC50? 8.24

Item COc1nc(N(C)[C@H]2C[C@@H](NCc3ccc(-c4cnc(S(C)(=O)=O)c(OC)c4)cc3)C[C@H]2O)c2cc(CC(F)(F)F)sc2n1 [Example 94, hydrochloride] has what recorded pIC50? 8.68

Item COc1cc(-c2ccc(CN[C@H]3C[C@@H](O)[C@@H](N(C)c4ncnc5sc(CC(F)(F)F)cc45)C3)cc2)nnc1C#N [Example 99, hydrochloride] has what recorded pIC50? 8.96

====

Molecular target: menin and MLL (menin, Flag tagged; biotinylated MLL1 peptide 1-46aa) (Homo sapiens, UniProt O00255)
Experiment: biochemical
Conditions: IC50, binding inhibitory activity between menin and MLL, AlphaLISA; 1 nM menin, 10 nM biotinylated MLL1 peptide
Counter-ions that a name gives are not always drawn.
Please respond with reported pIC50 for every item in the list.
The scale used: pIC50 is minus the common logarithm of the concentration in molar units.

Item COc1cc(-c2ccc(CN[C@H]3CC[C@H](OC)[C@@H](Nc4ncnc5sc(CC(F)(F)F)cc45)C3)cc2)nnc1OC [Example 126, Hydrochloride] has what recorded pIC50? 8.12

Item COc1cc(-c2ccc(CN[C@H]3C[C@@H](O)[C@@H](N(C)c4ncnc5sc(CC(F)(F)F)cc45)C3)cc2)nnc1N(C)C [Example 98, hydrochloride] has what recorded pIC50? 8.72

Item COc1cc(-c2ccc(CN[C@H]3C[C@@H](O)[C@@H](N(C)c4ncncc4Oc4ccc(F)c(F)c4C(=O)N(C(C)C)C(C)C)C3)cc2)nnc1OC [Example 104, hydrochloride] has what recorded pIC50? 8.20

Item CN(c1ncnc2sc(CC(F)(F)F)cc12)[C@H]1C[C@@H](NCc2ccc(-c3cccc(N(C)S(C)(=O)=O)c3)cc2)C[C@H]1O [Example 71, hydrochloride] has what recorded pIC50? 9.22

Item COc1cc(-c2ccc(CN[C@H]3C[C@@H](O)[C@@H](N(C)c4ncnc5sc(CC(F)(F)F)cc45)C3)cc2)nnc1Oc1cccnc1 [Example 107, hydrochloride] has what recorded pIC50? 8.89
